Sourced from paper PMC10165273

# Target of assay: MRGPRX4 (Homo sapiens, UniProt Q96LA9)
# Construct: expressed in transfected cells; host or cells: HEK293T
# Sequence (Q96LA9 whole entry): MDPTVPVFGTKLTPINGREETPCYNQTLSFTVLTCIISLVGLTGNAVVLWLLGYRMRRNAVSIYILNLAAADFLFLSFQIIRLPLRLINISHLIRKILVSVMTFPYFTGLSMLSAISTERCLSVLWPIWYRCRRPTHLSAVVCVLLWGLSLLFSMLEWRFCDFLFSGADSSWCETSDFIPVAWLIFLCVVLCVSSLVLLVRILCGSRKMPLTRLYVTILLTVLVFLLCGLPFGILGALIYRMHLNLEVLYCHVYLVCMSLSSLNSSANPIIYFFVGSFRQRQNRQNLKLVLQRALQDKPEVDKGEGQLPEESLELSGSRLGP
# Protocol summary: IP1 accumulation HTRF assay, MRGPRX4
# Type: cell-based
# Condition context: MRGPRX4 (Fig. 1A), HEK293T; normalized to 100 μM nateglinide; read-out: IP1 EC50
Endpoint name: EC50
# answer = value followed by unit

compound="CC(C)[C@H]1CC[C@H](C(=O)N[C@H](Cc2ccccc2)C(=O)O)CC1 [Nateglinide]" result="10.7 µM"

Next, consider the following compound.
Quote EC50 reported for C[C@H](CCC(=O)NCCS(=O)(=O)O)[C@H]1CC[C@H]2[C@@H]3CC[C@@H]4C[C@H](O)CC[C@]4(C)[C@H]3C[C@H](O)[C@]12C please.
53.2 µM

====

# Target of assay: MRGPRX4 + RAMP3 (Homo sapiens, UniProt Q96LA9)
# Construct: expressed in transfected cells; host or cells: HEK293T
# Protocol summary: IP1 accumulation, MRGPRX4 coexpressed with RAMP3
# Assay type: cell-based
# Condition context: MRGPRX4 + RAMP3 1 pg (Fig. S3); normalized per agonist; read-out: IP1 EC50
Endpoint name: pEC50
Bear in mind: pEC50 is minus log10 of a mol/L concentration; give just that figure.

Quote pEC50 reported for CC(C)[C@H]1CC[C@H](C(=O)N[C@H](Cc2ccccc2)C(=O)O)CC1 [Nateglinide] please.
4.92

====

# Target of assay: MRGPRX4 (Homo sapiens, UniProt Q96LA9)
# Construct: expressed in transfected cells; host or cells: HEK293T
# Protocol summary: IP1 accumulation HTRF assay, MRGPRX4
# Assay type: cell-based
# Condition context: MRGPRX4 DNA 0.25 pg/cell (Fig. S1); read-out: IP1 EC50
Endpoint name: pEC50
Bear in mind: pEC50 is minus log10 of a mol/L concentration; give just that figure.

Quote pEC50 reported for CC(C)[C@H]1CC[C@H](C(=O)N[C@H](Cc2ccccc2)C(=O)O)CC1 [Nateglinide] please.
4.87

====

# Target of assay: MRGPRX4 (Homo sapiens)
# Construct: expressed in transfected cells; host or cells: HEK293T
# Protocol summary: IP1 accumulation HTRF assay, MRGPRX4
# Type: cell-based
# Condition context: Tet-On MRGPRX4 1pg/cell, Dox 40 ng/mL (Fig. S5B); read-out: IP1 EC50
Endpoint name: EC50 (µM)
Your answer should be a plain number; it is taken to be in µM.

Quote EC50 reported for CC(C)[C@H]1CC[C@H](C(=O)N[C@H](Cc2ccccc2)C(=O)O)CC1 [Nateglinide] please.
13.7

====

# Target of assay: MRGPRX4 + RAMP2 (Homo sapiens)
# Construct: expressed in transfected cells; host or cells: HEK293T
# Protocol summary: IP1 accumulation, MRGPRX4 coexpressed with RAMP2
# Assay type: cell-based
# Condition context: MRGPRX4 + RAMP2 0.25 pg (Fig. S3); normalized per agonist; read-out: IP1 EC50
Endpoint name: EC50

Quote MRGPRX4 + RAMP2 (Homo sapiens) EC50 for entry CC(C)[C@H]1CC[C@H](C(=O)N[C@H](Cc2ccccc2)C(=O)O)CC1 [Nateglinide] .
11.8 µM

====

# Target of assay: MRGPRX4 + RAMP3 (Homo sapiens, UniProt Q96LA9)
# Construct: expressed in transfected cells; host or cells: HEK293T
# Protocol summary: IP1 accumulation, MRGPRX4 coexpressed with RAMP3
# Type: cell-based
# Condition context: Tet-On MRGPRX4:RAMP3 Ratio 1:0.75 (Fig. S5F); read-out: IP1 EC50
# Protocol: HEK293T cells were transfected with 1 pg/cell of MRGPRX4 DNA, and the amount of DNA was kept constant at 2 pg/cell with pcDNA3.1(+) empty vector, unless otherwise specified. Twenty four hours after transfection, IP1 assay was performed as previously described ([51]). […] Time-resolved fluorescence signals were read on the BioTek Synergy NEO-TRF Hybrid multi-mode reader (BioTek Instruments). […]
Endpoint name: pEC50
Bear in mind: pEC50 is minus log10 of a mol/L concentration; give just that figure.

Quote MRGPRX4 + RAMP3 (Homo sapiens, UniProt Q96LA9) pEC50 for entry CC(C)[C@H]1CC[C@H](C(=O)N[C@H](Cc2ccccc2)C(=O)O)CC1 [Nateglinide] .
5.15
